Reference source for all entries: patent US20100166734A1

target: T1, human serum albumin (human, UniProt P02768 25-609); assay: SPR (Biacore), HSA amine-coupled on CM5, pH 7
T1 construct: also called HSA
readout-type: koff (s⁻¹)

a = 4B1 (VHH, Tested as periplasmic extract) VHH: EVQLVESGGGLVQPGGSLRLSCVAAGFTLDYYAIGWFRQAPGKEREGVSCITSDGRTYYADSVKGRFTISRDMAKKMVYLQMNSLKPEDTAVYYCAAGACMGGSGYEADFGSWGQGTQVTVSS
b = 4C3 (VHH, Tested as periplasmic extract) VHH: EVQLVESGGGLVQAGGSLRLSCAASGRTFSSYAMAWFRQAPGEEREFVATISVSGGYTYYADSVKGRFTISRDNAKNTVYLQMNTLKPEDTAVYYCAAGDSSSWLEHMYDYWGQGTQVTVSS
c = 4D4 (VHH, Tested as periplasmic extract) VHH: EVQLVESGGGLVQAGDSLRLSCAASGRTFSPYVMGWFRRAPGKEREFVGGINWSGSNTWYTDSVKGRFTISRDNVKNMVYLQMNSLKPEDTAVYYCAAGSGVGMYRYERQYDYWGQGTQVTVSS
d = 4A9 (VHH, Tested as periplasmic extract) VHH: EVQLVESGGGLVQAGGSLRLSCEASGFTLDYSGVGWFRQAPGKERELVSCISRGGDRAGYANSVKGRFTMSRDNAKNILYLQMNSLKPEDTAVYYCAATHSGSGCYDGAIDYWGKGTLVTVSS
Query: Sort the items above on koff, descending. // rank by listing labels in the order requested
Reply: d, a, c, b
